Where do these numbers come from? They come from ChEMBL document CHEMBL3526135.

test system: CYP2e1; experiment: Effect on CYP2e1 mRNA expression in Sprague-Dawley rat liver at 15 mg/kg, ip administered twice daily every 12 hrs for 8 days by microarray analysis relative to control; format: ADME, organism-based; set-up: dose 15 mg/kg, route intraperitoneal; conditions: read-out: FC

molecule	fold induction at 8 days
COc1ccc2c3c1O[C@H]1C(=O)CC[C@@]4(O)[C@@H](C2)N(C)CC[C@]314.Cl [OXYCODONE HYDROCHLORIDE]	1.5

----------
tested on: CYP3a1; assay: Effect on CYP3a1 mRNA expression in Sprague-Dawley rat liver at 15 mg/kg, ip administered twice daily every 12 hrs for 8 days by microarray analysis relative to control; assay type: ADME, organism-based; design: dose 15 mg/kg, route intraperitoneal; conditions: read-out: FC
observationType: fold induction at 8 days

molecule	observationType	observedResult
COc1ccc2c3c1O[C@H]1C(=O)CC[C@@]4(O)[C@@H](C2)N(C)CC[C@]314.Cl [OXYCODONE HYDROCHLORIDE]	fold induction at 8 days	1.7

----------
tested on: Slc17a5; test: Effect on Slc17a5 mRNA expression in Sprague-Dawley rat liver at 15 mg/kg, ip administered twice daily every 12 hrs for 8 days by microarray analysis relative to control; format: ADME, organism-based; set-up: dose 15 mg/kg, route intraperitoneal; details: read-out: FC

compound	fold induction at 8 days
COc1ccc2c3c1O[C@H]1C(=O)CC[C@@]4(O)[C@@H](C2)N(C)CC[C@]314.Cl [OXYCODONE HYDROCHLORIDE]	1.5

----------
system: CYP4b1; assay: Effect on CYP4b1 mRNA expression in Sprague-Dawley rat liver at 15 mg/kg, ip administered twice daily every 12 hrs for 8 days by microarray analysis relative to control; assay type: ADME, organism-based; design: dose 15 mg/kg, route intraperitoneal; settings: read-out: FC
observationType: fold induction at 8 days

compound	observationType	observedResult
COc1ccc2c3c1O[C@H]1C(=O)CC[C@@]4(O)[C@@H](C2)N(C)CC[C@]314.Cl [OXYCODONE HYDROCHLORIDE]	fold induction at 8 days	1.9

----------
tested on: Slc1a2; assay: Effect on Slc1a2 mRNA expression in Sprague-Dawley rat liver at 15 mg/kg, ip administered twice daily every 12 hrs for 8 days by microarray analysis relative to control; type: ADME, organism-based; parameters: dose 15 mg/kg, route intraperitoneal; conditions: read-out: FC

compound	targetOrSystem	fold induction at 8 days
COc1ccc2c3c1O[C@H]1C(=O)CC[C@@]4(O)[C@@H](C2)N(C)CC[C@]314.Cl [OXYCODONE HYDROCHLORIDE]	Slc1a2	2.4

----------
test system: Por; assay: Effect on Por mRNA expression in Sprague-Dawley rat liver at 15 mg/kg, ip administered twice daily every 12 hrs for 8 days by microarray analysis relative to control; assay type: ADME, organism-based; set-up: dose 15 mg/kg, route intraperitoneal; conditions: read-out: FC

compound	fold induction at 8 days
COc1ccc2c3c1O[C@H]1C(=O)CC[C@@]4(O)[C@@H](C2)N(C)CC[C@]314.Cl [OXYCODONE HYDROCHLORIDE]	7

----------
system: CYP2b2; experiment: Upregulation of CYP2b2 protein expression in Sprague-Dawley rat liver microsomes at 15 mg/kg, ip administered twice daily every 12 hrs for 8 days by Western blot analysis relative to control; assay type: ADME, organism-based; set-up: dose 15 mg/kg, route intraperitoneal; conditions: read-out: FC

compound	fold induction at 8 days
COc1ccc2c3c1O[C@H]1C(=O)CC[C@@]4(O)[C@@H](C2)N(C)CC[C@]314.Cl [OXYCODONE HYDROCHLORIDE]	5

----------
test system: CYP2b2; assay: Effect on CYP2b2 mRNA expression in Sprague-Dawley rat liver at 15 mg/kg, ip administered twice daily every 12 hrs for 8 days by microarray analysis relative to control; type: ADME, organism-based; set-up: dose 15 mg/kg, route intraperitoneal; conditions: read-out: FC

compound	fold induction at 8 days
COc1ccc2c3c1O[C@H]1C(=O)CC[C@@]4(O)[C@@H](C2)N(C)CC[C@]314.Cl [OXYCODONE HYDROCHLORIDE]	6

----------
system: Slc39a4; experiment: Effect on Slc39a4 mRNA expression in Sprague-Dawley rat liver at 15 mg/kg, ip administered twice daily every 12 hrs for 8 days by microarray analysis relative to control; assay type: ADME, organism-based; design: dose 15 mg/kg, route intraperitoneal; conditions: read-out: FC

molecule	fold induction at 8 days
COc1ccc2c3c1O[C@H]1C(=O)CC[C@@]4(O)[C@@H](C2)N(C)CC[C@]314.Cl [OXYCODONE HYDROCHLORIDE]	1.6

----------
test system: CYP2a1; experiment: Effect on CYP2a1 mRNA expression in Sprague-Dawley rat liver at 15 mg/kg, ip administered twice daily every 12 hrs for 8 days by microarray analysis relative to control; format: ADME, organism-based; design: dose 15 mg/kg, route intraperitoneal; settings: read-out: FC

compound	fold induction at 8 days
COc1ccc2c3c1O[C@H]1C(=O)CC[C@@]4(O)[C@@H](C2)N(C)CC[C@]314.Cl [OXYCODONE HYDROCHLORIDE]	1.7

----------
tested on: Slc27a5; experiment: Effect on Slc27a5 mRNA expression in Sprague-Dawley rat liver at 15 mg/kg, ip administered twice daily every 12 hrs for 8 days by microarray analysis relative to control; format: ADME, organism-based; set-up: dose 15 mg/kg, route intraperitoneal; conditions: read-out: FC
observationType: fold induction at 8 days

molecule	observedResult
COc1ccc2c3c1O[C@H]1C(=O)CC[C@@]4(O)[C@@H](C2)N(C)CC[C@]314.Cl [OXYCODONE HYDROCHLORIDE]	1.6

----------
system: CYP17a1; test: Effect on CYP17a1 mRNA expression in Sprague-Dawley rat liver at 15 mg/kg, ip administered twice daily every 12 hrs for 8 days by microarray analysis relative to control; type: ADME, organism-based; parameters: dose 15 mg/kg, route intraperitoneal; details: read-out: FC

compound	targetOrSystem	fold induction at 8 days
COc1ccc2c3c1O[C@H]1C(=O)CC[C@@]4(O)[C@@H](C2)N(C)CC[C@]314.Cl [OXYCODONE HYDROCHLORIDE]	CYP17a1	17.1

----------
tested on: NR1I2; assay: Effect on NR1I2 mRNA expression in Sprague-Dawley rat liver at 15 mg/kg, ip administered twice daily every 12 hrs for 8 days by microarray analysis relative to control; type: ADME, organism-based; design: dose 15 mg/kg, route intraperitoneal; settings: read-out: FC

molecule	targetOrSystem	fold induction at 8 days
COc1ccc2c3c1O[C@H]1C(=O)CC[C@@]4(O)[C@@H](C2)N(C)CC[C@]314.Cl [OXYCODONE HYDROCHLORIDE]	NR1I2	2.9
